This section presents molecules with their documented melting point values.
Where a name gives a salt, the structure may show the parent alone.

Before answering, review these 4 worked examples.
[
  {
    "molecule": "O=C(c1ccc(-c2nn(Cc3cccc(Cl)c3)c(=S)[nH]2)cc1)N1CCN(c2cccc(Cl)c2)CC1 (as salt: hydrochloride)",
    "reported endpoint": "melting point",
    "value": "260 to 262 °C"
  },
  {
    "molecule": "O=C(O)c1cccc(-c2nn(Cc3cccc(Cl)c3)c(=S)[nH]2)c1",
    "reported endpoint": "melting point",
    "value": "314 to 316 °C"
  },
  {
    "molecule": "COC(=O)C(CO)NC(=O)c1cccc(-c2nn(Cc3cccc(Cl)c3)c(=S)[nH]2)c1 (stereo not shown)",
    "reported endpoint": "melting point",
    "value": "188 to 196 °C"
  },
  {
    "molecule": "COC(=O)c1ccc(-c2nn(Cc3cccc(Cl)c3)c(=S)[nH]2)cc1",
    "reported endpoint": "melting point",
    "value": "263.5 to 264.5 °C"
  }
]

Q: Need melting point, item CN(C)C(=O)c1ccc(-c2nn(Cc3cccc(Cl)c3)c(=S)[nH]2)cc1
Ans: 302 to 304 °C

Q: Need melting point, item CN(C)C(=O)c1cccc(-c2nn(Cc3cccc(Cl)c3)c(=S)[nH]2)c1
Ans: 184 to 187 °C

Q: Need melting point, item C[C@@H](NC(=O)c1ccc(-c2nn(Cc3cccc(Cl)c3)c(=S)[nH]2)cc1)[C@@H](O)c1ccccc1
Ans: 220 to 222 °C

Q: Need melting point, item CN(C)CC(C)(C)CNC(=O)c1cccc(-c2nn(Cc3cccc(Cl)c3)c(=S)[nH]2)c1
Ans: 173 to 175 °C

Q: Need melting point, item O=C(O)c1ccc(-c2nn(Cc3cccc(Cl)c3)c(=S)[nH]2)cc1
Ans: 302 °C

Q: Need melting point, item NS(=O)(=O)c1ccc(-c2nn(Cc3cccc(Cl)c3)c(=S)[nH]2)cc1
Ans: 281 to 283 °C

Q: Need melting point, item NC(=O)c1ccc(-c2nn(Cc3cccc(Cl)c3)c(=S)[nH]2)cc1
Ans: 310 to 312 °C

Q: Need melting point, item O=C(NCCF)c1cccc(Cn2nc(-c3ccccc3Cl)[nH]c2=S)c1
Ans: 165 to 168 °C

Q: Need melting point, item O=C(NCCO)c1ccc(-c2nn(Cc3cccc(Cl)c3)c(=S)[nH]2)cc1
Ans: 188 to 190 °C

====

This section presents compounds with their documented melting point values.

[
  {
    "mol": "CC(C)CCNC(=O)c1ccc(-c2nn(Cc3cccc(Cl)c3)c(=S)[nH]2)cc1",
    "reported endpoint": "melting point",
    "value": "218 to 220 °C"
  },
  {
    "mol": "N#CCNC(=O)c1cccc(Cn2nc(-c3ccccc3Cl)[nH]c2=S)c1",
    "reported endpoint": "melting point",
    "value": "178 to 182 °C"
  }
]

Q: Need melting point, item O=C(O)c1ccccc1-c1nn(Cc2cccc(Cl)c2)c(=S)[nH]1
Ans: 234 to 238 °C

Reference for the values: patent US20040214864A1
